# credit: PubChem BioAssay (NCI)

# System: A498 renal
# Experiment: NCI tumour cell line growth inhibition, 48 h; in the data active = GI50 below about 0.43 µM; inactive = the rest
Classes used: active, inactive

Molecule	Category
Cc1nn(-c2ccccc2)c2nc(C)n(-c3ccc(Br)cc3)c(=O)c12	active
CCN(CC)CCCNc1cc(OC)c(OC)c2cccnc12	inactive
CC1(C)CC[C@]2(CO)CC[C@]3(C)C(=CC[C@@H]4[C@@]5(C)CCNCC(C)(C)[C@@H]5CC[C@]43C)[C@@H]2C1	inactive
OCC1OC(n2cnc3c(NCc4ccco4)ncnc32)C(O)C1O (centres undefined)	inactive
COc1ccc(NC(=O)c2cccc(C3CCc4c(cc(OC)c(OC)c4OC)O3)c2)cc1 (centres undefined)	inactive
CCN(CC)CCCC(C)Nc1ccnc(/C=C/c2ccc(Cl)cc2)c1 (centres undefined)	inactive
CC[Si](CC)(CC)OC1[C@@H](O[Si](CC)(CC)CC)[C@@H](CNC(=O)NC)O[C@H]1n1cnc2c(NC(=O)Nc3ccccc3)ncnc21 (some centres undefined)	inactive
C=C1C(=O)O[C@H]2[C@H]1CC/C(COC(=O)/C=C\C(=O)NCc1ccc(Cn3c(=O)sn(-c4ccc(Cl)cc4)c3=O)cc1)=C\CC[C@@]1(C)O[C@@H]21	inactive
Nc1cc(N)c2nc(-c3ccccc3)c(NCc3ccc(Cl)c(Cl)c3)nc2c1	inactive
O=C(Nc1ccc(Cl)cc1)N1CCN(c2ccc3nncn3n2)CC1	inactive
CCCCNCCCCCNc1cc(OC)cc2cccnc12	inactive
COc1ccc2nc3ccccc3c(NCc3ccccc3)c2c1	inactive
O=C(CCl)Nc1ccc(Cc2ccc(NC(=O)CCl)cc2)cc1	inactive
CC(=O)O[C@H]1CC[C@]2(C)C3C(=O)C[C@]4(C)[C@@H](C(C)CCC(=O)O)CC[C@@]4(C)[C@@H]3CC[C@H]2C1(C)C (some centres undefined)	inactive
